- measurement.protocol: Cytotoxicity against human HEK293 cells assessed as reduction in cell viability after 48 hrs by Alamar blue assay
- Type: cell-based
test.readout: CC50 at 48 h (µM)
The figure you give is taken to be in µM; do not add the unit.

Measured CC50 at 48 h of `COc1cccc(S(=O)(=O)Nc2ccc3oc(-c4ccccc4)nc3c2)c1` : 63

molecule `O=S(=O)(Nc1ccc2oc(-c3ccccc3)nc2c1)c1cccc(F)c1` , CC50 at 48 h observed: 68

Consider `O=S(=O)(Nc1ccc2oc(-c3ccccc3)nc2c1)c1ccc(Cl)c(Cl)c1` . Its measured CC50 at 48 h is 71

molecule `C=Cc1ccc(S(=O)(=O)Nc2ccc3oc(-c4ccccc4)nc3c2)cc1` , CC50 at 48 h observed: 53

Record `O=S(=O)(Nc1ccc2oc(-c3ccccc3)nc2c1)c1ccccc1Cl` . Reported CC50 at 48 h: 73
